Attribution: paper PMC9274090

- tested_system: Alpha/beta hydrolase domain-containing 5 (ABHD5, CGI-58) (Mus musculus)
- Construct: ABHD5 fused to C-terminal fragment of G. princeps luciferase
- Sequence (Q9DBL9 1-351): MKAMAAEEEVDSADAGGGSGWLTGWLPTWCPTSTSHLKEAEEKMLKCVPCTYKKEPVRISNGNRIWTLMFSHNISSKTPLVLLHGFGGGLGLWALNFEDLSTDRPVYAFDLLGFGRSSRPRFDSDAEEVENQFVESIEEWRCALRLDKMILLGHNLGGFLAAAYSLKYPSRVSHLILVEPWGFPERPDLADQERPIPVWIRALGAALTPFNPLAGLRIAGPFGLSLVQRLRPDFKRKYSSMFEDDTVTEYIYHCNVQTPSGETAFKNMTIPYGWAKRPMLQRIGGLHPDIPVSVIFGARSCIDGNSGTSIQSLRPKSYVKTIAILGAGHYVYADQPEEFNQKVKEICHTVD
- Sequence (Q8BVZ1 1-463 partner): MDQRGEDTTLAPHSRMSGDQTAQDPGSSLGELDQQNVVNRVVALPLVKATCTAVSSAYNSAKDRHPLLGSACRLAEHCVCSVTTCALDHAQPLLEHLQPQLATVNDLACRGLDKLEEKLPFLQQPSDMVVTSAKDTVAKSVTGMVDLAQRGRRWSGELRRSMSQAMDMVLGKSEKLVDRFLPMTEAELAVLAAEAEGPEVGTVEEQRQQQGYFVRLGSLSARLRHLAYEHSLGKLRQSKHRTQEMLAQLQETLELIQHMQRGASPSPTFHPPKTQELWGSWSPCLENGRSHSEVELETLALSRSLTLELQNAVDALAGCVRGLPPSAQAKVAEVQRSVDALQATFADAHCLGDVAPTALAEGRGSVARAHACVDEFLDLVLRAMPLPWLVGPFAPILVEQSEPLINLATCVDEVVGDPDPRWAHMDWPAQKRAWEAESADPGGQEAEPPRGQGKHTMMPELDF
- protocol_description: split luciferase complementation in cell lysates: ligand-induced dissociation of ABHD5-PLIN5
- Assay type: biochemical
readout_label: IC50 (µM)
Answer format: numeric, µM implied, no suffix.

For Cc1ccc2c(CC(=O)N3CCN(S(=O)(=O)c4ccc5c(c4)OCCO5)CC3)coc2c1 , what is its reported IC50?
3.44

---

- tested_system: Alpha/beta hydrolase domain-containing 5 (ABHD5, CGI-58) (Mus musculus)
- Construct: ABHD5 fused to C-terminal fragment of G. princeps luciferase
- Sequence (Q9DBL9 1-351): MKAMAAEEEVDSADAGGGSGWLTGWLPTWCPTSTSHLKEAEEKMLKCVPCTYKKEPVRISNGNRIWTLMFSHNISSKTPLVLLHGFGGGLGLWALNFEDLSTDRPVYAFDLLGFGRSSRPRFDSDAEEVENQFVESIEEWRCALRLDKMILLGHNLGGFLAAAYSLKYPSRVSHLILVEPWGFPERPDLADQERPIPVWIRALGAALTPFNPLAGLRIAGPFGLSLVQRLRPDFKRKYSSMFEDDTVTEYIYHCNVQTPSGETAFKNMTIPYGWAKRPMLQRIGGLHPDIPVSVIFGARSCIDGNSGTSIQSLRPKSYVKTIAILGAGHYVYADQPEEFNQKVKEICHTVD
- Sequence (Q8BVZ1 1-463 partner): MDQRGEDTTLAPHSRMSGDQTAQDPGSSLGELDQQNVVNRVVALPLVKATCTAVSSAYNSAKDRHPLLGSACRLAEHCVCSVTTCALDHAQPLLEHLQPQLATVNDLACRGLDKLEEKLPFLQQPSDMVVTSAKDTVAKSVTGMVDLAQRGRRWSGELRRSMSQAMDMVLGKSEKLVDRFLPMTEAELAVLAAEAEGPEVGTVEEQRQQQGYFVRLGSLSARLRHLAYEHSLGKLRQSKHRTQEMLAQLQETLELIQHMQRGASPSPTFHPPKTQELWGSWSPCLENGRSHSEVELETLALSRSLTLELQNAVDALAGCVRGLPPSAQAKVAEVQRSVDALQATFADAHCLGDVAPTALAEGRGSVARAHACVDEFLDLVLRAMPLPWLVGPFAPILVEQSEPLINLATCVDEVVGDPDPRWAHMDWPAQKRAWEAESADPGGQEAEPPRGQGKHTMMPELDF
- protocol_description: split luciferase complementation in cell lysates: ligand-induced dissociation of ABHD5-PLIN5
- Assay type: biochemical
- condition_summary: read-out: IC50
readout_label: pIC50
Expect pIC50 as a plain number equal to -log10 of the molar concentration.

[[record]]
compound_string = "COc1ccc(CC(=O)N2CCN(S(=O)(=O)c3ccc4c(c3)OCCCO4)CC2)cc1"
assay_value = 5.05


Proceed to the following item.
Recorded pIC50 of O=C(Cc1cccc(F)c1)N1CCN(S(=O)(=O)c2ccc3c(c2)OCCO3)CC1 , please.
4.80
